PROCEDURE_TEXT: Clearance in rat hepatocyte assessed per million cells
Assay type: ADME, cell-based
CONDITION_SUMMARY: hepatocytes, read-out: CLH

| COMPOUND | UNIT_SPEC | hepatocyte CLint |
| --- | --- | --- |
| N#Cc1ccc(-c2ccc(C3=NOC(c4ccccc4-c4cncnc4)N3c3ccc(N4CCNCC4)cc3)o2)cc1 (stereo in doubt; 38) | µL/min/1e6 cells | 35 |

----------
PROCEDURE_TEXT: Plasma protein binding in rat
Type: ADME, cell-free
CONDITION_SUMMARY: read-out: PPB (converted)

| COMPOUND | fraction unbound |
| --- | --- |
| N#Cc1ccc(-c2ccc(C3=NOC(c4ccccc4-c4cncnc4)N3c3ccc(N4CCNCC4)cc3)o2)cc1 (stereo in doubt; 38) | 0.031 |
